Reference for the values: paper PMC5540273

# Test system: MYLK2;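 further: KINOMEscan kinase panel screen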
# Test conditions: concentration: 1 μM, replicates: in singlicate; n = 1
Parameter: %Inh (%)
Answers are plain numbers, in %.

Worked cases, answers included:
Molecule	%Inh, %
Cc1ccc(C)c(NC(=O)NC2CCN(c3ccnc(Nc4ccc(F)cc4)n3)C2)c1 (centres unmarked)	0
COc1cc(Nc2nccc(-c3c(-c4cccc(NC(=O)c5c(F)cccc5F)c4)nn4ccccc34)n2)cc(OC)c1OC	91.6
CN(C)Cc1ccc(-c2ccc3c(Nc4ccc(Oc5ccccn5)cc4)ccnc3c2)o1	0
Cc1ccc(S(=O)(=O)Nc2ccc(Nc3nccc(Nc4cccc5[nH]ncc45)n3)cc2)cc1	17

Give one value of %Inh per listed molecule.
1. O=C(Nc1cccc(-c2nn3ccccc3c2-c2ccnc(Nc3cccc(F)c3)n2)c1)c1c(F)ccc(F)c1Cl
2. Oc1cc(Nc2ccnc3cc(I)ccc23)ccc1F
3. CCCCc1nn2ncccc2c1-c1ccnc(Nc2ccc(N3CCN(C)CC3)cc2)n1
4. O=C(Nc1cccc(Oc2ccc3nc(NC(=O)C4CC4)cn3n2)c1)c1ccccc1C(F)(F)F

1. 10
2. 0
3. 41
4. 0
